- Test system: NCI-H322M lung
- procedure-text: NCI-60 one-dose screen, 48 h (100 = growth as untreated, 0 = no growth, -100 = all killed)
- details: 10 µM unless noted
Compounds without any hit were thinned out: in the full panel of roughly 83,000, 20% have a hit.
Here the recorded growth is given for each entry.
Hi! Could you send only the number? It should be in %, unit omitted.

CN(C)CCN1C(=O)c2ccc3c4c(ccc(c24)C1=O)C(=O)N(CCN=C=S)C3=O :: -94.1

Which growth reading was recorded for the compound `Clc1ccccc1-c1nc2ccccc2[nH]1` ?
152

Subsequent entry: `Cc1ccc(CSC(=N)N)cc1C`
111

Can you handle `CCCCN(CCCC)c1ccc(C(=N)c2ccc(N(CCCC)CCCC)cc2)cc1` next?
11.9

And the next one, `O=[N+]([O-])c1ccc(OCCCOc2ccccc2)cc1` ?
101

Cool, now `O=Nc1c(-c2cccc([N+](=O)[O-])c2)nc2ncccn12`
120
